SYSTEM UNDER TEST: GCN2 (Homo sapiens)
Sequence (Q9P2K8 whole entry, species assumed): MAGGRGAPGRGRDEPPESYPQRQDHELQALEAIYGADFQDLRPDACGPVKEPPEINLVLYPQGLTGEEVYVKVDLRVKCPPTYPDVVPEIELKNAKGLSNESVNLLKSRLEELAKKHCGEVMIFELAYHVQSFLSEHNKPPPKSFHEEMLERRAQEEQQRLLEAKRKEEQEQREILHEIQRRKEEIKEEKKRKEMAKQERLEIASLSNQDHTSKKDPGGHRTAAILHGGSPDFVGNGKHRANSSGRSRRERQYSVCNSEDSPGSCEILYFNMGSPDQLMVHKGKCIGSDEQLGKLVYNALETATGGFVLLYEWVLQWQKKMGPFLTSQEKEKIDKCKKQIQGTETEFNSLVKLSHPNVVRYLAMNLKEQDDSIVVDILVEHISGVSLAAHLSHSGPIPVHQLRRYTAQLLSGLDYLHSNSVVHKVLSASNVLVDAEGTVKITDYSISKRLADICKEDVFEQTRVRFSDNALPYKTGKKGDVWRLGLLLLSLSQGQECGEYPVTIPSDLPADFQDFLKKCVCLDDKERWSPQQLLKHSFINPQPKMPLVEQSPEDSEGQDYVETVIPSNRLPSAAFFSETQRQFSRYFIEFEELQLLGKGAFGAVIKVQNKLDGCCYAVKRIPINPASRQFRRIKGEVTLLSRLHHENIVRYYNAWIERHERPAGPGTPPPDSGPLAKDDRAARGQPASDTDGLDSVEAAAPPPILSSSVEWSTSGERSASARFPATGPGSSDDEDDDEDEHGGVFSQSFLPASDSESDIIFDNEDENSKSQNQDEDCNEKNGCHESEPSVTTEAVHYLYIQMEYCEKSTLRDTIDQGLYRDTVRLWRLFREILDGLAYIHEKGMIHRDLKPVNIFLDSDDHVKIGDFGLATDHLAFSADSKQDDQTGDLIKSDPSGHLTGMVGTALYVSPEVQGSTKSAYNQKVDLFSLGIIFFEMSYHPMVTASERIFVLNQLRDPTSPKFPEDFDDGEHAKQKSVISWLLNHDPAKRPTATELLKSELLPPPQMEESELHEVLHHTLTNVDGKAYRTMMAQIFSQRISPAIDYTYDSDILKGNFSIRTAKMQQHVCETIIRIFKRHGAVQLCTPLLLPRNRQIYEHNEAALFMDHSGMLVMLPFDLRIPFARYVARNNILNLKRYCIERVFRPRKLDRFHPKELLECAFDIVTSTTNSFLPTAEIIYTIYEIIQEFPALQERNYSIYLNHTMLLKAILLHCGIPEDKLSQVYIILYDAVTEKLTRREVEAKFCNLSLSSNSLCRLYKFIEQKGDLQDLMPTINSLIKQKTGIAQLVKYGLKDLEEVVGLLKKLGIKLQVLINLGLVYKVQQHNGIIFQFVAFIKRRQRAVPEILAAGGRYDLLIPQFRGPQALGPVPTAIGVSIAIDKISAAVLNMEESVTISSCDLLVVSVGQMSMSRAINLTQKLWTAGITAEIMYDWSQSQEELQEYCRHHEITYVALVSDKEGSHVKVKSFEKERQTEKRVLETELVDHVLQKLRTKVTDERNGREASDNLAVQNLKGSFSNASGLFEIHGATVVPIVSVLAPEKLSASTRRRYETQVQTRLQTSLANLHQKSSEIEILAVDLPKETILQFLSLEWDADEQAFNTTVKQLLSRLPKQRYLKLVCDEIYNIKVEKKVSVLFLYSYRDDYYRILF
pIC50: −log10 of the molar value.
Field: pIC50. Provide a value for each of the compounds that follow.

INPUT: Find pIC50 (GCN2 (Homo sapiens)) for the entry "CCOc1ccc(-n2c(C)nc3cnc(Nc4cnn(C5CCN(C)CC5)c4)nc32)cc1"
OUTPUT: 5.30 to 6.00

INPUT: Consider next the compound "CCn1cc(Nc2ncc3nc(N)n(-c4ccc(C(=O)NCCO)cc4)c3n2)cn1" in the same way.
OUTPUT: 5.00 to 5.30

INPUT: Consider next the compound Cn1cc(-c2ccc(-n3cnc4cnc(N[C@@H]5CC[C@@H](O)C5)nc43)cc2)cn1 (relative stereo) in the same way.
OUTPUT: 5.30 to 6.00

INPUT: Consider next the compound "COc1ccc(-n2cnc3cnc(Nc4ccn(C)n4)nc32)cc1" in the same way.
OUTPUT: 5.30 to 6.00

INPUT: Consider next the compound "COc1ccc(-n2cnc3cnc(Nc4cn[nH]c4)nc32)cc1" in the same way.
OUTPUT: > 6.00

INPUT: Consider next the compound "COCCn1cc(-c2ccc(-n3cnc4cnc(N[C@@H]5CC[C@@H](C(N)=O)C5)nc43)cc2F)cn1" in the same way.
OUTPUT: > 6.00

INPUT: Consider next the compound "COc1ccc(-n2cnc3cnc(Nc4cnn(-c5ccccc5)c4)nc32)cc1" in the same way.
OUTPUT: 5.00 to 5.30

INPUT: Consider next the compound "CCOc1ccc(-n2cnc3cnc(N[C@@H]4CC[C@@H](C(N)=O)C4)nc32)cc1" in the same way.
OUTPUT: 5.30 to 6.00
